Experimental target: MAPK10 (human) (UniProt P53779)
Sequence (P53779 whole entry, looked up): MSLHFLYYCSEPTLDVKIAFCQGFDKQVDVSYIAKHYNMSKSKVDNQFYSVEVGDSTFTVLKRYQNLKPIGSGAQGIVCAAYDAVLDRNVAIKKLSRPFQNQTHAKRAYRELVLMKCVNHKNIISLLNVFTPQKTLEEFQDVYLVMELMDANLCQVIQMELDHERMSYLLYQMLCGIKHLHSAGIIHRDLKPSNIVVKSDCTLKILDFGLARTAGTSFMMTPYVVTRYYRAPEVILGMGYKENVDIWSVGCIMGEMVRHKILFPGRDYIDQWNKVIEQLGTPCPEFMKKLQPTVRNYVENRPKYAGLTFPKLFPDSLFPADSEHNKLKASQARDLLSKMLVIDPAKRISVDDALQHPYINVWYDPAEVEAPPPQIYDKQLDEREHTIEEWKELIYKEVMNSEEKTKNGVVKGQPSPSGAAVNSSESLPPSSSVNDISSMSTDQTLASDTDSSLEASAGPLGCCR
Assay text: radiometric filter-binding kinase assay, Kinase HotSpot
Assay context: compound 0.5 µM; ATP 10 µM
Recorded metric: residual activity (%)
Record the value in %, omitting the unit from your answer.

Q) What value of residual activity has been reported for the following compound? O=C1Nc2ccccc2/C1=C1/Nc2ccccc2/C1=N\OCCC(O)CO (stereo unspecified)
A) 103

Q) Returns the measured residual activity for the input compound. Input: `CCN(CC)CCCCN1c2ccccc2Oc2ccc(Cl)cc21`
A) 104

Q) Returns the measured residual activity for the input compound. Input: `O=C1Cc2c([nH]c3ccc(Br)cc23)-c2ccccc2N1`
A) 89.6

Q) Fill in the blank: the reported residual activity of `COc1ccc(OC)c2c(=S)c3ccccc3[nH]c12` is ____.
A) 108

Q) Give the measured residual activity of `O=C(CCCc1ccc(-c2ccccc2F)cc1)Nc1ccc(O)cc1` .
A) 100

Q) Given the compound `CC(=O)O/N=C1\C(=C2\C(=O)Nc3cc(Br)ccc32)Nc2ccccc21` , what is its reported residual activity?
A) 83

Q) So what's the measured residual activity for this one? `Cn1nc2c3c(cccc31)C(=O)c1ccccc1-2`
A) 97.3

Q) Param item = `O=C(O)/C=C/c1cc(Br)c(Br)c(Br)c1Br` ; retrieve measured residual activity.
A) 96.3

Q) Looking for the measured residual activity of `Cn1cnc2cc3c(Nc4cccc(Br)c4)ncnc3cc21` , can you help?
A) 104

Q) What value of residual activity has been recorded for this entry: `COc1cc2ncnc(N3CCN(C(=O)Nc4ccc(Oc5ccccc5)cc4)CC3)c2cc1OC`
A) 98.2

Q) I have this compound here, `O=C1Nc2ccccc2/C1=C1\Nc2ccccc2\C1=N/O` , and I need its recorded residual activity.
A) 96.4
